Listing of entries alongside the reported melting point.
recorded metric: melting point

{"molecule": "COc1ccc2[nH]c(SCc3nccc(N4CCOCC4)n3)nc2c1", "measured result": "188 to 192 °C"}
{"molecule": "Cc1c(-c2ccc3c(c2)NC(=O)CO3)nc2ccccn12", "measured result": "280 to 282 °C"}
{"molecule": "COc1cccc(OCC(N)=O)c1-c1c(C#N)c2ccccn2c1Nc1c(C)cccc1C", "measured result": "227 to 229 °C"}
{"molecule": "CN(C(=O)Cc1ccc(Cl)c(Cl)c1)[C@@H]1CCC(=O)C[C@H]1N1CCCC1 (relative stereo)", "measured result": "148 to 149 °C"}
{"molecule": "CC(C)COc1c(-c2ccc(S(N)(=O)=O)cc2)cnn(CC(F)(F)F)c1=O", "measured result": "170 to 172 °C"}
{"molecule": "O=C(O)c1cc(C(c2ccccc2)c2ccccc2)ccn1", "measured result": "172 to 177 °C"}
{"molecule": "CS(=O)(=O)c1ccc(-c2ccccc2-c2ccc(F)c(Cl)c2)cc1", "measured result": "180 to 181 °C"}
{"molecule": "COc1ccc2c(c1)CCC1C2CCC2(C)C(=O)C=C(C(C)C)C12 (stereo not given)", "measured result": "113 to 116 °C"}
{"molecule": "FC(F)(F)c1ccc(-c2cc(Oc3ccc4cccnc4c3)ncn2)c(OCCN2CCOCC2)c1", "measured result": "132 to 133 °C"}
{"molecule": "CCCC(=O)NN=Cc1ccnc2ccccc12", "measured result": "130 °C"}
{"molecule": "Cc1ccc(N2CCN(Cc3n[nH]c4ccccc34)CC2)nc1", "measured result": "151 to 153 °C"}
{"molecule": "CCNC(=O)n1nc(Oc2c(Cl)cc(C(F)(F)F)cc2Cl)cc1-c1ccc(Cl)cc1", "measured result": "88 to 89 °C"}
{"molecule": "O=C(NC1CCOCC1)c1cccc(-c2cccc3oc(Cc4cccc(C(F)(F)F)c4)cc23)c1", "measured result": "107 to 108 °C"}
{"molecule": "CC(=O)Nc1nc2c(s1)-c1c(cnn1-c1ccc(C(=O)N3CCC(NC(=O)Cc4ccccc4)CC3)cc1)CC2", "measured result": "271 to 272 °C"}
{"molecule": "CC(C)c1ccc(-c2cccc(-c3cccc(C(=O)O)c3)n2)cc1", "measured result": "215 to 216 °C"}
{"molecule": "CCCCCCCCCCCCCCCCOc1coc(C(=O)O)cc1=O", "measured result": "126 to 130 °C"}
{"molecule": "COc1cncc(OC)c1CCCO", "measured result": "88 to 89 °C"}
{"molecule": "CCOC(=O)CNC(=O)COc1ccc(CCl)cc1", "measured result": "88.5 to 90.5 °C"}
{"molecule": "O=S1(=O)CCN2C=CC=C(c3ccc(OC4CCCC4)cc3)C2=N1", "measured result": "254 to 256 °C"}
{"molecule": "O=C(CCCCN1CCCCC1)c1ccc2c(c1)Cc1cc(C(=O)CCCCN3CCCCC3)ccc1O2", "measured result": "129 to 130 °C"}
